# Subject Of Test: Glutaminase kidney isoform, mitochondrial (Homo sapiens, UniProt O94925)
# Sequence (O94925 whole entry): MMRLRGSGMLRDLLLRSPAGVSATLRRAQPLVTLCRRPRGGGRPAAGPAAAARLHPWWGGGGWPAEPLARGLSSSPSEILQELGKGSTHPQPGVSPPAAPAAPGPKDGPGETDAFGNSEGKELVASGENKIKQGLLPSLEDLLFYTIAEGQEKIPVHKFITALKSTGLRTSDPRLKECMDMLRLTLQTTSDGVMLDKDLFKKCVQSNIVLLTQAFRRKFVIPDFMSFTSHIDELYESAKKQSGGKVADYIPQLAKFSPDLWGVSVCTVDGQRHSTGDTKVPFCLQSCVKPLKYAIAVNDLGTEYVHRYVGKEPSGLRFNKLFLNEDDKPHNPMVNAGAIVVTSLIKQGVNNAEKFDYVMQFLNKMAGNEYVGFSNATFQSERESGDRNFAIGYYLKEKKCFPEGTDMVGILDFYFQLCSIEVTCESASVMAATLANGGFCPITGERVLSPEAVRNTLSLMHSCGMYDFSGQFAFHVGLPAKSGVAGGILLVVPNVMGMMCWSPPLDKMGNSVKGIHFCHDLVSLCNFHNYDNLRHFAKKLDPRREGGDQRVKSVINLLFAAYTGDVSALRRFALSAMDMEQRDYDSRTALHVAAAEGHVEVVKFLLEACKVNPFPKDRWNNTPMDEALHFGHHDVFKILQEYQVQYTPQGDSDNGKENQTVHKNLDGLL
# Assay Explanation: Allosteric inhibition of human GLS1 using glutamine as substrate incubated for 60 mins by NADH/NADPH-based absorbance analysis
Reported IC50 values follow for various compounds

{"Sample Smiles": "O=C(CCc1cn(Cc2ccc(C(F)(F)F)cc2)nn1)Nc1ccc(N2CC[C@H](Nc3nnc(NC(=O)Cc4ccccn4)s3)C2)nn1", "Recorded Result": "> 1000 nM"}
{"Sample Smiles": "Nc1nnc(NC2CCN(c3ccc(NC(=O)CCc4cn(Cc5ccc(C(F)(F)F)cc5)nn4)nn3)CC2)s1", "Recorded Result": "> 10000 nM"}

Proceed to the following item.
Param readout= IC50; system= Glutaminase kidney isoform, mitochondrial (Homo sapiens, UniProt O94925); entry= O=C(Cc1ccccc1)Nc1nnc(NC2CCN(c3nnc(NC(=O)CCc4cn(Cc5ccc(C(F)(F)F)cc5)nn4)s3)CC2)s1 ; returns value.
8.66 nM
